Target: PRMT5 (Homo sapiens, UniProt O14744)
Construct: purchased Viva (custom protein)
Sequence (O14744 whole entry): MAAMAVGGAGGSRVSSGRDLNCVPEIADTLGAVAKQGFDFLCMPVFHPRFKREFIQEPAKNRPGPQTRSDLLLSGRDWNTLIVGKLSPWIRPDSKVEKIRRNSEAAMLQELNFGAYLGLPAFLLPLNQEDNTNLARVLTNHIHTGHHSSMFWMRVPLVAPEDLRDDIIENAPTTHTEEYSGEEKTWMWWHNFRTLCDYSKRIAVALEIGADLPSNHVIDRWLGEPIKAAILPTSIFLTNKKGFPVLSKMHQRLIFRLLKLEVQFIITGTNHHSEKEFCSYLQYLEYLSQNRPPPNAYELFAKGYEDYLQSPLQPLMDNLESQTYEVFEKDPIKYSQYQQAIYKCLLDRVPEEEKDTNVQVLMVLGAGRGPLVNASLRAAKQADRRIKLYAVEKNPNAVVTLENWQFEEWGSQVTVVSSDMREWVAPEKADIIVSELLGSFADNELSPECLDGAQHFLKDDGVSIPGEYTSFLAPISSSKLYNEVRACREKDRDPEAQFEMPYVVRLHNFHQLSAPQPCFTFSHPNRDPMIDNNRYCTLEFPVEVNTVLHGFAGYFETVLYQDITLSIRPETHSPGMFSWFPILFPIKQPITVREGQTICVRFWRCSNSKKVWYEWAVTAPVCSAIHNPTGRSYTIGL
Sequence (Q9BQA1 whole entry partner): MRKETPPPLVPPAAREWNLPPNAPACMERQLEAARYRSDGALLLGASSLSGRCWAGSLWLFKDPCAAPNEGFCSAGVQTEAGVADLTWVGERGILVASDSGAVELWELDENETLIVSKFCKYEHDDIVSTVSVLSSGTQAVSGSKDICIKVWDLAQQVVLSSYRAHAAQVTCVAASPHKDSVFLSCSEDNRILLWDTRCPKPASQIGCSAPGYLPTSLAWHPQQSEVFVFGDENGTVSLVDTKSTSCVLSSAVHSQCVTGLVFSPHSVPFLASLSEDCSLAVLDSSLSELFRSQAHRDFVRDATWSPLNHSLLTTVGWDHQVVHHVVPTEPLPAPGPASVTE
Assay: PRMT5 inhibition assay with no cofactor
Type: biochemical
Settings: against PRMT5 with no cofactor; read-out: No Co-factor IC50
endpoint: IC50

Asked: Complete the entry with IC50 for CC(=O)N1CCC(Nc2cc(C(=O)NC[C@@H](O)[C@@H]3Cc4ccc(OCc5ocnc5C)cc4CN3)cc(N3CCN(C)CC3)n2)CC1
Given back: 50 to 500 nM

Asked: Complete the entry with IC50 for CC(=O)N1CCC(Nc2cc(C(=O)NC[C@@H](O)[C@@H]3Cc4ccc(OCc5ocnc5C)cc4CN3)ncn2)CC1
Given back: 500 to 5000 nM

Asked: Complete the entry with IC50 for COCCN(C)c1cc(C(=O)NC[C@@H](O)[C@@H]2Cc3ccc(OCc4ocnc4C)cc3CN2)cc(NC2CN(C(C)=O)C2)n1
Given back: 50 to 500 nM

Asked: Complete the entry with IC50 for Cc1ncoc1COc1ccc2c(c1)CN[C@H]([C@H](O)CNC(=O)c1ccc(C(=O)N3CCOCC3)cc1)C2
Given back: 500 to 5000 nM

Asked: Complete the entry with IC50 for CCC(=O)N1CCN(c2cc(C(=O)NC[C@@H](O)[C@@H]3Cc4ccc(OCc5ocnc5C)cc4CN3)cc(NC3CCC3)n2)CC1
Given back: 50 to 500 nM

Asked: Complete the entry with IC50 for CC(=O)N1CC(Nc2cc(C(=O)NC[C@@H](O)[C@@H]3Cc4ccc(OCc5ocnc5C)cc4CN3)nc(N3CC4CCC(C4)C3)n2)C1
Given back: 50 to 500 nM
